experiment summary: Toxicity liver stage against HepG2, at 10uM
Type: cell-based
Parameters: test concentration 10 uM, cell line HepG2-A16-CD81EGFP
particulars: human, HepG2-A16-CD81EGFP cells; read-out: INHIBITION
assay metric: cytotoxicity at 10 µM (%)
Note: unit % is implicit; provide only the numeric part.

CC(C)n1cc(N2CC(C(=O)N3CCc4ccccc4C3)CC2=O)cn1 (stereo not given) | -153

Problem: Report cytotoxicity at 10 µM for Cc1ccoc1C(=O)N1CCCC(c2cc(C(F)(F)F)[nH]n2)C1 (stereo not given)
Solution: 2.4

Problem: Report cytotoxicity at 10 µM for CC(C)N1CCC(CC(=O)N2CCC(C(O)c3nccn3C)CC2)CC1 (stereo not given)
Solution: -0.153

Problem: Report cytotoxicity at 10 µM for CC(C(=O)N1CCc2sccc2C1)N1CCC(S(N)(=O)=O)CC1 (stereo not given)
Solution: 9.26

Problem: Report cytotoxicity at 10 µM for N#Cc1cccc(CN2CC3(CCCCN3c3cccnc3)CC2=O)c1 (stereo not given)
Solution: -7.27

Problem: Report cytotoxicity at 10 µM for "CC(C)C(=O)NCCCNC(=O)Nc1cc(-c2ccccc2)ns1"
Solution: 20.3

Problem: Report cytotoxicity at 10 µM for "COC(=O)NCc1ccc(NC(=O)CC2=CCCCC2)cc1"
Solution: 2.97

Problem: Report cytotoxicity at 10 µM for "CN(CCCc1cnn(C)c1)C(=O)C1CCN(C(=O)C2CCC2)CC1"
Solution: -11.6

Problem: Report cytotoxicity at 10 µM for COc1cc(CN2CCCC(Nc3cccc(F)c3)C2)cc(Cl)c1O (stereo not given)
Solution: -0.476

Problem: Report cytotoxicity at 10 µM for Cc1cc(C)n(CC2CCCN2CCc2ccccn2)n1 (stereo not given)
Solution: -8.01
